B1: TRIM15 (parent)
chain: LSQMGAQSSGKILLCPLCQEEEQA

# Variants of: B1
# Test Summary: protein stability index of a GFP-peptide fusion (GPS, HEK-293T) (PSI 1-6); higher = more stable;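 also: lentivirally expressed fusions sorted by FACS into six bins by GFP to DsRed ratio, PSI derived from sequencing read proportions per bin multiplied by bin number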
# Conditions Used: c terminus: a fixed tail appended
Measure: protein stability index
Reply briefly: the number, and no unit.

Example variants with recorded protein stability index:
May I ask what protein stability index has been recorded for `P16T` ?
3.91

May I ask what protein stability index has been recorded for `M4R` ?
3.92

Then there is this variant:
May I ask what protein stability index has been recorded for `A6S` ?
4.02
